Target: p53 Y220C (Homo sapiens, UniProt P04637, Y220C)
Assay: Luciferase Reporter Assay (Luc), p53 response element, NClH1299 cells with inducible p53 Y220C
Format: cell-based
Settings: Emax; NClH1299 cells with inducible p53 Y220C; 6 hour; 10 uM tool compound as positive control
Protocol: Luciferase Reporter Assay Protocol The cells were then used for p53 reporter assay. 5,000 cells were seeded in each well of 384 plate and cultured in 0.5 ug/mL doxycycline (D3072; Sigma) containing medium for 24 hours before compound treatment. […] The luciferase activity was immediately measured with PheraStar microplate reader.
Catalogue of Emax values

| compound | Emax |
| --- | --- |
| COc1ccc(C(=O)N[C@H]2C[C@H](O)C2)cc1NCC#Cc1cc2c(N[C@@H]3CCN(C)C[C@@H]3F)cccn2c1SC(F)(F)F [Example 482] | > 90% |
| CNC(=O)c1ccc(NCC#Cc2cc3c(N[C@@H]4CCN(C)C[C@@H]4F)cccn3c2SC(F)(F)F)c(O[C@H]2C[C@@H](O)C2)c1 [Example 474] | > 90% |

Kindly consider the entry below.
Exercise: Observed Emax on p53 Y220C (Homo sapiens, UniProt P04637, Y220C) for CNC(=O)c1ccc(O[C@H]2C[C@H](O)C2)c(NCC#Cc2cc3c(N[C@@H]4CCN(C)C[C@@H]4F)cccn3c2SC(F)(F)F)c1 [Example 497] , please.
Key: > 90%
